Record: compiled IC50 on Cannabinoid receptor 1 (Rattus norvegicus, UniProt P20272) from multiple reports.
Sequence (P20272 whole entry): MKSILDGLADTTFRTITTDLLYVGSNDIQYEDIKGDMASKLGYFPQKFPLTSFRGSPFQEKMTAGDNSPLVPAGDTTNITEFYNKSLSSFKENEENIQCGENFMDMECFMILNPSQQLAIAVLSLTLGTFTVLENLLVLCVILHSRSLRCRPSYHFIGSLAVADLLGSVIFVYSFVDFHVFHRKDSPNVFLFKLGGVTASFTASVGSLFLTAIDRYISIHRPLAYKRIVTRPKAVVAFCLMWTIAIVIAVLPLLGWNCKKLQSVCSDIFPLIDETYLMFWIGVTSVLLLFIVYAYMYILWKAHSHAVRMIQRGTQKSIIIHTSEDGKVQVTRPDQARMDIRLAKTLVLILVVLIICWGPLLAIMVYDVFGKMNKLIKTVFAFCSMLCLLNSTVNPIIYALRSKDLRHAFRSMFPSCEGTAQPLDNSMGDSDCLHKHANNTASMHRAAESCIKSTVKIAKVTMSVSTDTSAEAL
MEASUREMENT LABEL: IC50 (nM)

[[record]]
compound = "O=C(NC1CCCCCC1)c1nn(-c2ccccc2Cl)c(-c2ccc(Cl)cc2)c1Cn1cncn1"
measurement_label = "IC50"
qualifier = "="
val = 9.7

[[record]]
compound = "COC(=O)NC(C)c1c(-c2nnc(C(C)(C)C)o2)nn(-c2ccc(Cl)cc2Cl)c1-c1ccc(Cl)cc1 (stereo not drawn)"
measurement_label = "IC50"
qualifier = "="
val = 9

[[record]]
compound = "CCOC(=O)c1c(C(=O)NC2(c3noc(C(F)(F)F)n3)CC2)nn(-c2ccc(Cl)cc2Cl)c1-c1ccc(Cl)cc1"
measurement_label = "IC50"
qualifier = "="
val = 1

[[record]]
compound = "CC(C)(C)NC(=O)N1CCN(C(c2ccc(Cl)cc2)c2ccccc2Cl)CC1 (stereo not drawn)"
measurement_label = "IC50"
qualifier = "="
val = 122

[[record]]
compound = "CCCCC(CC)CNC(=O)c1nn(-c2ccc(Cl)cc2Cl)c(-c2ccc(Cl)cc2)c1Cn1cncn1 (stereo not drawn)"
measurement_label = "IC50"
qualifier = "="
val = 20.2

[[record]]
compound = "O=C(NNC(=O)C1(C(F)(F)F)CC1)c1nn(-c2ccc(Cl)cc2Cl)c(-c2ccc(Cl)cc2)c1Cn1cncn1"
measurement_label = "IC50"
qualifier = "="
val = 126

[[record]]
compound = "CC(C)(NC(=O)c1nn(-c2ccc(Cl)cc2Cl)c(-c2ccc(Cl)cc2)c1Cn1cncn1)c1ccc(Cl)cc1"
measurement_label = "IC50"
qualifier = "="
val = 3.33

[[record]]
compound = "Cc1c(-c2nnc(C(C)(C)C)o2)nc(-c2ccccc2Cl)n1-c1ccc(Cl)cc1"
measurement_label = "IC50"
qualifier = "="
val = 5.29

[[record]]
compound = "CCCN(CCC)C(=O)Cc1c(-c2ccc(Cl)cc2)n(C)c2ccccc12"
measurement_label = "IC50"
qualifier = ">"
val = 1000

[[record]]
compound = "C[C@H](Nc1cc(Nc2ccccc2)ncn1)[C@@H](Cc1ccc(Cl)cc1)c1cccc(Br)c1"
measurement_label = "IC50"
qualifier = "="
val = 67.4

[[record]]
compound = "O=C(c1nn(-c2ccc(Cl)cc2Cl)c(-c2ccc(Cl)cc2)c1Cn1cncn1)N1CCN(c2cccc(Cl)c2)CC1"
measurement_label = "IC50"
qualifier = "="
val = 7.33

[[record]]
compound = "Cc1c(-c2nnc(C3CCCCC3)o2)nn(-c2ccc(Cl)cc2Cl)c1-c1ccc(Cl)cc1"
measurement_label = "IC50"
qualifier = "="
val = 12

[[record]]
compound = "O=C(C1CCCCC1)N1CCN(C(c2ccc(Cl)cc2)c2ccc(Cl)cc2)CC1"
measurement_label = "IC50"
qualifier = "="
val = 1390

[[record]]
compound = "O=C(NC1(c2ccc(Cl)cc2)CC1)c1nn(-c2ccc(Cl)cc2Cl)c(-c2ccc(Cl)cc2)c1Cn1cncn1"
measurement_label = "IC50"
qualifier = "="
val = 5.09

[[record]]
compound = "O=C(NC1CCCCC1)N1CCN(C(c2ccc(Cl)cc2)c2ccccc2Cl)CC1 (stereo not drawn)"
measurement_label = "IC50"
qualifier = "="
val = 72.8

[[record]]
compound = "O=C(NN1CCCCC1)c1nn(-c2ccc(Cl)cc2Cl)c(-c2ccc(Br)cc2)c1Cn1cncn1"
measurement_label = "IC50"
qualifier = "="
val = 5.11

[[record]]
compound = "CCCN(CCC)C(=O)Cc1c(-c2ccc(Br)cc2)[nH]c2ccccc12"
measurement_label = "IC50"
qualifier = ">"
val = 1000

[[record]]
compound = "O=C(NC1(C(F)(F)F)CC1)c1nn(-c2ccc(Cl)cc2Cl)c(-c2ccc(Cl)cc2)c1Cn1cncn1"
measurement_label = "IC50"
qualifier = "="
val = 4.5

